biological target: human oxytocin receptor (human, UniProt P30559); experiment: cell-based or functional assay
Decision: Emax of calcium release >= 40 yields Y, all other cases yield N.

Inquiry: For this binder, is measured Emax of calcium release 40 or higher? H-QYIQEGR-OH [OT-like peptide #6, Glucose-6-phosphate isomerase 313-319, H-QYIQEGR-OH]
Reply text: Y

Inquiry: Does the binder H-DYIKNMITG-OH [OT-like peptide #8, Elongation factor Tu 88-96, H-DYIKNMITG-OH] have recorded Emax of calcium release that is 40 or more?
Reply text: Y

Inquiry: Confirm if Emax of calcium release reported for the binder H-KYIENISDE-OH is 40 or above.
Reply text: Y

Inquiry: Please check the record H-SYFYNKEDG-OH [OT-like peptide #10, Enolase 246-254, H-SYFYNKEDG-OH] and state if its Emax of calcium release is at or above 40.
Reply text: Y

Inquiry: Has H-IYLRSNPLMK-OH [OT-like peptide #15, Probable phosphoketolase 40-49, H-IYLRSNPLMK-OH] a recorded Emax of calcium release greater than or equal to 40?
Reply text: N

Inquiry: Decide: Emax of calcium release of H-DYVKNMITG-OH [OT-like peptide #1, Elongation factor Tu 87-95, H-DYVKNMITG-OH] >= 40?
Reply text: Y

Inquiry: Confirm if Emax of calcium release reported for the binder H-KFVNDNELG-OH [OT-like peptide #2, Glucose-6-phosphate isomerase 13-21, H-KFVNDNELG-OH] is 40 or above.
Reply text: Y

Inquiry: API: above_or_equal(metric=Emax of calcium release, cutoff=40) for item H-LTITNVPNS-OH
Reply text: Y

Inquiry: API: above_or_equal(metric=Emax of calcium release, cutoff=40) for item H-CYFEDAGA-OH [OT-like peptide #13, Triosephosphate isomerase 61-68, H-CYFEDAGA-OH]
Reply text: N

Inquiry: Could you verify whether the entry H-MFQAARKG-OH [OT-like peptide #11, Fructose tagatose bisphosphate aldolase 1-8, H-MFQAARKG-OH] shows Emax of calcium release of no less than 40?
Reply text: N
